Test system: OVCAR-4
experiment: NCI tumour cell line growth inhibition, 48 h
The source made the active and inactive calls. Cut-off read from the data, not from the text of the source: active = GI50 up to about 1.1 µM and inactive = higher.

[
  {
    "compound": "CC(=O)O[C@H]1C(=O)[C@@]2(C)C(C(OC(=O)c3ccccc3)[C@]3(O)CC(OC(=O)C(O)C(NC(=O)c4ccc(C)cc4)c4ccccc4)C(C)=C1C3(C)C)[C@]1(OC(C)=O)CO[C@@H]1C[C@@H]2O (stereo partly drawn)",
    "GI50": "3.2 µM (inactive)"
  },
  {
    "compound": "Cc1ccc(N2C(=O)/C(=C/c3ccc(N(CCC#N)CCC#N)cc3C)N=C2c2cc([N+](=O)[O-])ccc2Cl)cc1",
    "GI50": "> 100 µM (inactive)"
  },
  {
    "compound": "CCOC(=O)c1c(Sc2ccc([N+](=O)[O-])cc2[N+](=O)[O-])nc2c3ccccc3ccn12",
    "GI50": "10.7 µM (inactive)"
  }
]

###

Test system: SR
experiment: NCI tumour cell line growth inhibition, 48 h
Active and inactive are the calls of the source. Cut-off read from the data, not from the text of the source: active = GI50 up to about 1.1 µM and inactive = higher.
Outcomes: active, inactive

[
  {
    "compound": "CCCCc1ccc(Nc2nc(Cl)c3ccn(C4CC(Oc5ccc(C)cc5)C(COc5ccc(C)cc5)O4)c3n2)cc1 (stereo unspecified)",
    "class_assignment": "inactive"
  },
  {
    "compound": "CCC(=O)O[C@H]1CC[C@H]2[C@@H]3CCC4=C/C(=N/NC(=O)c5cccc6c(=O)c7ccccc7[nH]c56)CC[C@]4(C)[C@H]3CC[C@]12C",
    "class_assignment": "inactive"
  },
  {
    "compound": "COc1ccc2c(c1)c(CC(=O)O)c(C)n2C(=O)c1ccc(Cl)cc1",
    "class_assignment": "inactive"
  },
  {
    "compound": "O=C(NC1CCCC1=O)c1ccccc1 (stereo unspecified)",
    "class_assignment": "inactive"
  },
  {
    "compound": "COc1ccccc1C1C2=C(COC2=O)OC(C)(C)Oc2cc3c(cc21)OCO3 (stereo unspecified)",
    "class_assignment": "inactive"
  },
  {
    "compound": "O=C1C(=C(C(=O)c2ccccc2)C(=O)c2ccccc2)OC(c2ccccc2)=C1C(=O)c1ccccc1",
    "class_assignment": "inactive"
  },
  {
    "compound": "CC1CC(C)C2=NOS3=C2C1=NO3 (stereo unspecified)",
    "class_assignment": "inactive"
  },
  {
    "compound": "COc1ccc(Cc2nc3ccccc3s2)cc1OC",
    "class_assignment": "inactive"
  },
  {
    "compound": "c1cc(CN2CCNCCNCCNCC2)cc(CN2CCNCCNCCNCC2)c1",
    "class_assignment": "inactive"
  },
  {
    "compound": "O=c1c(O)c(-c2ccccc2)n(O)c2ccc(Cl)cc12",
    "class_assignment": "inactive"
  },
  {
    "compound": "CSC1=NC(C(N)=O)C(N)N1C (stereo unspecified)",
    "class_assignment": "inactive"
  },
  {
    "compound": "COC(=O)C1=C(C=O)C2C=CC1C2 (stereo unspecified)",
    "class_assignment": "inactive"
  },
  {
    "compound": "COc1cc2c(c(OC)c1OC)-c1ccc(SC)c(=O)cc1C(NC=O)CC2 (stereo unspecified)",
    "class_assignment": "active"
  },
  {
    "compound": "CN(C)c1n/c(=N/Cc2cccs2)ss1",
    "class_assignment": "active"
  },
  {
    "compound": "C=CC1(O)CCCC=C1COCc1ccccc1 (stereo unspecified)",
    "class_assignment": "inactive"
  },
  {
    "compound": "OC1(c2cccs2)c2cccc(Cl)c2C(O)(c2cccs2)c2c(Cl)cccc21 (stereo unspecified)",
    "class_assignment": "inactive"
  }
]

All figures here come from ChEMBL document CHEMBL1201862.
